measured.endpoint: melting point

Answered examples (4):
* O=c1cc(C(F)(F)F)nc(-c2ccccc2O)[nH]1 | 236 to 238 °C
* Cc1c(C(F)(F)F)nc(-c2ccccc2)[nH]c1=O | 256 to 259 °C
* O=c1cc(C(F)(F)F)nc(-c2cccnc2)[nH]1 | 276 to 277 °C
* O=c1[nH]c(-c2ccccn2)nc(C(F)(F)F)c1Cc1ccc(F)cc1 | 183 to 185 °C

Note: attention shifts to another entry.
The reported value for Cc1c(C(F)(F)F)nc(-c2ccccc2Cl)[nH]c1=O in terms of melting point is 165 to 167 °C

----------
- Test system: HepG2 human liver cells
- test.name: Cytotoxicity against HepG2 cells (CellTiter-Glo)
- Format: cell-based
- particulars: concentration required to inhibit growth of HepG2 cells by 50%; 72 h exposure
measured.endpoint: pIC50
Give bare numbers, as −log10 of the molar value.

• Cc1c(C(F)(F)F)nc(-c2ccccn2)[nH]c1=O = 5.27

The reported value for O=c1[nH]c(-c2ccccn2)nc(C(F)(F)F)c1-c1ccccc1 in terms of pIC50 is 5.00
